measurement_target: T1, insulin-like growth factor II (IGF-II), amino acids 1-67 (human, UniProt P01344 25-91)
T1 construct: recombinant; also called IGF-II (67aa); IGF2
T1 sequence (P01344 25-91): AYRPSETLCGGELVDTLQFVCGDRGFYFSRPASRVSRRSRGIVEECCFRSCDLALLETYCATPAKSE
test_protocol: SPR (Flexchip), Fab, 2nd of duplicate
Kindly state Kd for each of the entries shown.
State the answer as a number, implicitly in nM.

input: Give the measured Kd for M0072-G06 Fab (Fab, V domains shown, soluble Fab (sFab); also called R0032-C05) VH: EVQLLESGGGLVQPGGSLRLSCAASGFTFSEYVMWWVRQAPGKGLEWVSVISPSGGYTVYADSVKGRFTISRDNSKNTLYLQMNSLRAEDTAVYYCARDRGGATTLDYWGQGTLVTVSS VL: DIQMTQSPSTLSASVGDRVTITCRASQTISSWLAWYQQKPGKAPKLMIYKAASLGSEVPSRFSGSGSGTEFTLTISSLQPEDFSTYYCQQYKTYPVTFGQGTRLEIKR
output: 1.4

input: Please indicate Kd recorded for M0070-H08 Fab (Fab, V domains shown, soluble Fab (sFab); also called R0032-A07) VH: EVQLLESGGGLVQPGGSLRLSCAASGFTFSRYWMIWVRQAPGKGLEWVSSIRSSGETKYADSVKGRFTISRDNSKNTLYLQMNSLRAEDTAVYYCARGPLSDYYDSSGYYFDAFDIWGQGTMVTVSS VL: DIQMTQSPSSLSASAGDRVTITCRASQSISSYLNWYQQKPGKAPNLLIYTTSNLQGGVPSRFSGSGSGTDFTLTISSLQPEDFATYYCQQGYSFPLTFGGGTKVEIKR
output: 1.1

input: Tell me its Kd given M0064-E04 Fab (Fab, V domains shown, soluble Fab (sFab); also called R0032-A03; 566A-M0064-E04) VH: EVQLLESGGGLVQPGGSLRLSCAASGFTFSVYDMNWVRQAPGKGLEWVSSISSSGGGTLYADSVKGRFTISRDNSKNTLYLQMNSLRAEDTAVYYCARDSDTSSYYWYYDLWGRGTLVTVSS VL: DIQMTQSPSSLSASVGDRVTITCQASHDISNYLNWYQQKPGKAPKLLIYAASRLQSGVPSRFSGGGSGTDFSLTISSLQAEDFATYYCQQSYSFPRTFGQGTNLEIKR as the entry.
output: 0.25

input: Return Kd (reported value) for this binder: M0064-F02 Fab (Fab, V domains shown, soluble Fab (sFab); also the Fab crystallised with IGF-II; also called R0032-A11; 566A-M0064-F02) VH: EVQLLESGGGLVQPGGSLRLSCAASGFTFSNYIMWWVRQAPGKGLEWVSVISSSGGMTRYADSVKGRFTISRDNSKNTLYLQMNSLRAEDTAVYYCARDNGDYVGEKGFDIWGQGTMVTVSS VL: DIQMTQSPSSLSASVGDRVTITCRASQSISNYLNWYQQKPGKAPKLLIYTASTLQSGVPSRFSGSASGTDFTLTINSLQPEDFATYSCQQSYNSPWTFGQGTKVEIKR
output: 1.2

input: Please give the documented Kd of M0072-C06 Fab (Fab, V domains shown, soluble Fab (sFab); also called R0032-A09) VH: EVQLLESGGGLVQPGGSLRLSCAASGFTFSAYIMTWVRQAPGKGLEWVSSISPSGGYTVYADSVKGRFTISRDNSKNTLYLQMNSLRAEDTAVYYCARDSGFGDPFDYWGQGTMVTVSS VL: DIQMTQSPSSLSASVGDRVTITCRASQSIRNYLNWYQQKPGKAPKLLIYAASKLEDGVPSRFSGSGTGTDFTLTIRSLQPEDFASYFCQQSYSSPGITFGPGTKVEIKR
output: 0.7

input: For the binder M0063-F02 Fab (Fab, V domains shown, soluble Fab (sFab); also called R0032-A01) VH: EVQLLESGGGLVQPGGSLRLSCAASGFTFSKYEMDWVRQAPGKGLEWVSVISSSGGGTIYADSVKGRFTISRDNSKNTLYLQMNSLRAEDTAMYYCARGRTLYGGAFDIWGQGTMVTVSS VL: DIQMTQSPSSLSASVGDRVTITCRASQPINTYLNWYQQRPGKAPRILIYTSSTLQSGVPSRFSGSGSGTDFTLTISSVQPEDFATYYCQQSYSFPLTFGGGTKVEIKR , give its reported Kd.
output: 1.6

input: Tell me Kd reported for M0033-E05 Fab (Fab, V domains shown, soluble Fab (sFab); also called R0032-A05) VH: EVQLLESGGGLVQPGGSLRLSCAASGFTFSHYSMWWVRQAPGKGLEWVSYIGPSGGHTRYADSVKGRFTISRDNSKNTLYLQMNSLRAEDTAVYYCARGLYYYDSSSVTHAFDLWGQGTMVTVSS VL: DIQMTQSPSSLSASVGDRVTISCRASQGITNYLVWFQQKPGKAPRLLIYDASTLESGVPSRFSGSGSGTDFTLTISSLQPEDFATYYCQQADGFPLTFGEGTKVEMKR
output: 5.5
